# Assay Summary: chemical genetic growth profiling, strain panel (AID 1159580);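 further: tested at 20 µM; growth read once vehicle control cultures reached saturation at 30 °C; 1 = growth at the plate median or of vehicle wells; lower values mean less growth of the strain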
# Test Conditions: S. cerevisiae deletion strains, growth OD, locus YHR013C, strain ard1
Screen size: about 5,500 compounds; about 2,000 (36%) were called active. Inconclusive results (about 18%) are left out. No stated cut-off is given here; in the data, active means normalized growth mostly below about 0.91 (no sharp cut-off); inconclusive means no clear call, values can overlap the other calls; inactive means mostly above about 0.92. Some of the results follow.
Labels: Yes (active), No (inactive)

- CC(C)(N=NC(C)(C)C(=N)N)C(=N)N: No
- CCCCCC(=O)O[C@]1(C(C)=O)CCC2C3CCC4=CC(=O)CC[C@]4(C)C3CC[C@@]21C (some centres undefined): No
- CN=C(NC#N)NCCSCc1nc[nH]c1C: No
- COC(=O)COc1cc(Cl)c(Cl)cc1Cl: No
- COc1ccc(-c2cc(=O)c3c(O)cc(OC)c(OC)c3o2)c(OC)c1: No
- O=C(O)c1cc(=O)c2ccc(Cl)cc2[nH]1: No
- O=C(O)COc1cc(Cl)c(Cl)cc1Cl: No
- O=c1ccc2cc(O)c(O)cc2o1: No
- N=c1nc(N2CCCCC2)cc(N)n1O: No
- Cc1cc(OC(=O)N2CCCCC2)c(C(C)C)cc1[N+](C)(C)C: No
- c1ccc(CC2=NCCN2)cc1: No
- Cc1c(N(C)C)c(=O)n(-c2ccccc2)n1C: No
- CC(=O)O[C@]1(C(C)=O)CCC2C3C[C@H](C)C4=CC(=O)CC[C@]4(C)C3CC[C@@]21C (some centres undefined): No
- CCCCCCCCCCCCC[N+](C)(C)Cc1ccccc1: Yes
- CC(=O)OCC(CCn1cnc2cnc(N)nc21)COC(C)=O: No
- COC(=O)[C@@H]1C(O)CC[C@H]2CN3CCc4c([nH]c5ccccc45)[C@@H]3C[C@@H]21 (some centres undefined): No
- c1ccc(CN(CC2=NCCN2)c2ccccc2)cc1: No
- C[C@@H](N)CO: No
- Cc1ccc(O)cc1: No
- OCc1ccccc1O[C@@H]1O[C@H](CO)[C@@H](O)[C@H](O)[C@H]1O: No
- NC(=O)N1c2ccccc2CC(=O)c2ccccc21: No
- O=C(/C=C/c1ccccc1)O[C@H]1C[C@@H](O)[C@]2(O)C=CO[C@@H](O[C@@H]3O[C@H](CO)[C@@H](O)[C@H](O)[C@H]3O)[C@H]12: No
- C/C=C(/C(=C/C)c1ccc(O)cc1)c1ccc(O)cc1: No
- CC(C)[C@H](N)C(=O)OCCOCn1cnc2c(=O)[nH]c(N)nc21: No

====

# Assay Summary: chemical genetic growth profiling, strain panel (AID 1159580);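 further: tested at 20 µM; growth read once vehicle control cultures reached saturation at 30 °C; 1 = growth at the plate median or of vehicle wells; lower values mean less growth of the strain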
# Test Conditions: S. cerevisiae deletion strains, growth OD, locus YHR200W, strain rpn10, hits give low values
In all, about 5,500 compounds went through this assay and about 2,000 (36%) were called active. Inconclusive results (about 18%) are left out. This is one part of the list.
# normalized growth per entry
Readout: normalized growth

* COc1ccc(-c2coc3c(OC)c(OC)cc(O)c3c2=O)cc1 | 0.941
* COC(=O)COc1cc(Cl)c(Cl)cc1Cl | 0.982
* COC1C(O)C(O)C(O)[C@@H](O)C1O (some centres not stated) | 1.03
* COC(=O)COc1ccc(Cl)cc1Cl | 1.01
* CCOC(=O)/C=C(\C)OP(=O)(OC)OC | 0.994
* COc1ccc(-c2coc3c(OC)c(O)ccc3c2=O)cc1 | 0.936
* Oc1c(Cl)c(Cl)c(Cl)c(Cl)c1Cl | 0.755

Reference source for all entries: PubChem BioAssay AID1159580
